Multiple publications report pKi for Plasminogen (Homo sapiens); what follows is a combined list.
pKi: −log10 of the molar value.
measurementType: pKi

1) CCOC(=O)C1(NS(=O)(=O)c2ccc3c(Cl)cnc(N=C(N)N)c3c2)CCCC1    < 4.00
2) N=C(N)c1ccc(O)c(CN2CC[C@H](NS(=O)(=O)c3cc4c(Cl)nccc4s3)C2=O)c1    5.35
3) CC1CCN(C(=O)[C@H](Cc2cccc(C(=N)N)c2)NS(=O)(=O)c2cccc(NC(=O)CCN)c2)CC1    5.21
4) NC(N)=Nc1ncc(Cl)c2ccc(S(=O)(=O)Nc3cccc(C(=O)O)c3)cc12    5.01
5) CC(=N)N1CCC(CCNC(=O)N2CCN(C(=O)O[C@H]3CCC[C@@H](OC(=O)N4CCN(C(=O)NCCC5CCN(C(C)=N)CC5)CC4)CCC3)CC2)CC1    < 3.00
6) CCOc1ccc(C(=O)Nc2ccc(NC(=N)N)cc2)c(O)c1    < 4.12
7) NCC12CCC(CNC(=O)N3CCN(C(=O)O[C@H]4CCC[C@@H](OC(=O)N5CCN(C(=O)NCC67CCC(CN)(CC6)CC7)CC5)CCC4)CC3)(CC1)CC2    < 3.00
8) N=C(N)Nc1ccc(NC(=O)c2cc3ccccc3c(I)c2O)cc1    < 4.12
9) N=C(N)Nc1ccc(CNC(=O)N2CCN(C(=O)O[C@H]3CCC[C@@H](OC(=O)N4CCN(C(=O)NCCc5ccncc5)CC4)CCC3)CC2)cc1    < 3.00

###

Across several publications, the following Ki results were reported for UniProt:P00747.
measurementType: Ki

1) N=C(N)N1CCC(CC(=O)N2CCN(C(=O)O[C@H]3CCC[C@@H](OC(=O)N4CCN(C(=O)CC5CCN(C(=N)N)CC5)CC4)CCC3)CC2)CC1    > 1000 µM
2) O=S(=O)(Nc1cccc(OCCNc2ccncc2)c1)c1ccc(Cl)cc1    > 500 µM
3) COC(=O)Nc1ccc2c(c1)NC(=O)[C@H](C)CCC[C@H](NC(=O)c1ncn(-c3cccc(Cl)c3F)c1C)c1cc-2ccn1.Cl.Cl    > 15 µM
4) Nc1ncnc2cc(CN3CCN(Cc4cc5cc(Cl)ccc5[nH]4)CC3=O)ccc12    > 7.3 µM
5) Cc1nn(-c2ccc3onc(N)c3c2)c2c(=O)n(-c3ccc(-c4ccccc4CN(C)C)cc3)c(C)nc12    > 15 µM
6) N=C(N)Nc1ccc(CNC(=O)N2CCN(C(=O)O[C@H]3CCC[C@@H](OC(=O)N4CCN(C(=O)CCc5cnc(N)nc5)CC4)CCC3)CC2)cc1    > 1000 µM
7) N=C(N)Nc1ccc(CNC(=O)N2CCN(C(=O)O[C@H]3CCC[C@@H](OC(=O)N4CCN(C(=O)CCCCn5ccnc5)CC4)CCC3)CC2)cc1    > 1000 µM
8) N=C(N)Nc1ccc(CNC(=O)N2CCN(C(=O)O[C@H]3CCC[C@@H](OC(=O)N4CCN(C(=O)NCCCCCN)CC4)CCC3)CC2)cc1    > 1000 µM
9) N=C(N)Nc1ccc(CNC(=O)N2CCN(C(=O)O[C@H]3CCC[C@@H](OC(=O)N4CCN(C(=O)CCCC5CCNCC5)CC4)CCC3)CC2)cc1    > 1000 µM
10) O=C(CNS(=O)(=O)c1ccc2ccccc2c1)N[C@@H](CCNc1ccncc1)C(=O)N1CCCCC1    > 500 µM
11) CNCc1ccc(CNC(=O)N2CCN(C(=O)O[C@H]3CCC[C@@H](OC(=O)N4CCN(C(=O)NCc5ccc(CNC)cc5)CC4)CCC3)CC2)cc1    > 1000 µM

###

// cross-source set; read-out = Ki; system = Plasminogen (Homo sapiens, UniProt P00747)
measurementType: Ki

1) COC(=O)Nc1ccc(-c2c[nH]c([C@H](Cc3ccccc3)NC(=O)/C=C/c3cc(Cl)ccc3-n3cnnn3)n2)cc1    > 41 µM
2) Cc1cc2cc(N=C(NC#N)N[C@H]3CCCCN(CC(=O)N4CCCC4)C3=O)ccc2o1    > 16 µM
3) N=C(N)c1ccc(CNC(=O)CNC(=O)[C@@H](N)CO)cc1    > 1000 µM
4) Nc1n[nH]c2cc(-c3nc([C@H](Cc4ccccc4)NC(=O)/C=C/c4cc(Cl)ccc4-n4cnnn4)[nH]c3Cl)ccc12    > 24 µM

###

Let's look at some pKi data for Plasminogen (Homo sapiens, UniProt P00747) that I collected from the literature.
pKi: −log10 of the molar value.
measurementType: pKi

1) CC(C)c1cc(C(C)C)c(S(=O)(=O)NC(Cc2cccc(C(=N)N)c2)C(=O)N2CCN(C(=O)CN)CC2)c(C(C)C)c1 (racemic)    5.47
2) N=C(N)NCCC1CCN(C(=O)[C@H](Cc2cccc(C(=N)N)c2)NS(=O)(=O)c2ccc(Oc3ccccc3)nc2)CC1    5.85
3) N#Cc1ccc2cc(NC(=O)c3ccccc3)ccc2c1    5.25
4) CC(C)[C@H](NS(=O)(=O)c1ccc2c(Cl)cnc(N=C(N)N)c2c1)C(=O)O    4.35
5) COc1ccc2ccc(S(=O)(=O)N[C@H]3CCN(Cc4cc(C(=N)N)ccc4O)C3=O)cc2c1    5.63
6) [H]/N=C(\N)c1ccc2cc(C(=O)Nc3ccc(CN)cc3)ccc2c1    4.80
7) O=C(CC[C@H]1CCC[C@@H](NC(=O)[C@H](Cc2c[nH]c3ccccc23)NC(=O)OCc2ccccc2)C1=O)N[C@@H](Cc1ccccc1)C(=O)O (stereo in doubt; 16B)    3.82

###

pKi: −log10 of the molar value.
Reported pKi against Plasminogen (Homo sapiens), gathered from multiple publications, appears below.
measurementType: pKi

1. N=C(N)Nc1ccc(CNC(=O)N2CCN(C(=O)O[C@H]3CCC[C@@H](OC(=O)N4CCN(C(=O)NCCCN)CC4)CCC3)CC2)cc1    < 3.00
2. N=C(N)c1cccc(CC(NS(=O)(=O)c2cccc(-c3ccc4[nH]ccc4c3)c2)C(=O)N2CCC(CCN)CC2)c1 (racemic)    6.42
3. CCC[C@H](NC(=O)[C@@H]1C2CCCC2CN1C(=O)[C@@H](NC(=O)[C@@H](NC(=O)c1cnccn1)C(C)(C)C)C(C)(C)C)C(=O)C(=O)NC1CC1 (stereo partly specified)    < 4.30
4. CC(C)(C)[C@@H](NS(=O)(=O)c1ccc2c(Cl)cnc(N=C(N)N)c2c1)C(=O)O    < 4.00
5. N=C(N)Nc1ccc(CCC(=O)N2CCN(C(=O)O[C@H]3CCC[C@@H](OC(=O)N4CCN(C(=O)CCc5ccc(NC(=N)N)cc5)CC4)CCC3)CC2)cc1    < 3.00
6. N=C(N)Nc1ccc(CNC(=O)N2CCN(C(=O)CCCCCCCC(=O)N3CCN(C(=O)NCc4ccc(NC(=N)N)cc4)CC3)CC2)cc1    < 3.00

###

Published Ki for Plasminogen (Homo sapiens), assembled from different documents, is shown next.
measurementType: Ki

1) NC(N)=Nc1ncc(Cl)c2ccc(S(=O)(=O)N3CCCC[C@@H]3C(=O)O)cc12    > 100 µM
2) N=C(N)c1ccc(Cn2ccc3cc(C(=N)N)ccc32)c(Cl)c1    > 700 µM
3) NC[C@H]1CC[C@H](C(=O)N[C@@H](Cc2ccccc2)c2cc(-c3ccc4[nH]nc(O)c4c3)ccn2)CC1    > 22.1 µM
4) N=C(N)c1ccc(CNC(=O)[C@@H]2Cc3ccc(cc3)NC(=O)CCN3CCCN(CCC(=O)Nc4ccc(cc4)C[C@@H](NS(=O)(=O)Cc4ccccc4)C(=O)N2)CC3)cc1    0.00132 µM
5) CC(=O)c1c[nH]c2cc(C(=N)N)ccc12    > 1000 µM
6) N=C(N)Nc1ccc(CNC(=O)N2CCN(C(=O)O[C@H]3CCC[C@@H](OC(=O)N4CCN(C(=O)NCCCC5CCNCC5)CC4)CCC3)CC2)cc1    > 1000 µM

###

Let's look at some pKi data for Plasminogen (Homo sapiens, UniProt P00747) that I collected from the literature.
pKi: −log10 of the molar value.
measurementType: pKi

1. CCOC(=O)N1CCN(C(=O)[C@H](Cc2cccc(C(=N)N)c2)NS(=O)(=O)c2cccc(NC(=O)CCN)c2)CC1    4.87
2. N=C(N)c1ccc2cc(/C=C/c3ccccc3)cc(Br)c2c1    5.87
3. CC1CNc2c(cccc2S(=O)(=O)N[C@@H](CCCNC(=N)N)C(=O)N2CC[C@@H](C)C[C@@H]2C(=O)O)C1 (stereo partly specified)    3.59
4. CC1CCCCN1C(=O)[C@H](Cc1cccc(C(=N)N)c1)NS(=O)(=O)c1cccc(NC(=O)CCN)c1 (stereo partly specified)    5.35
5. N=C(N)c1cccc(CN2CC[C@H](NS(=O)(=O)c3ccc4ccccc4c3)C2=O)c1    5.33
6. N=C(N)c1cccc(C[C@H](NS(=O)(=O)c2cccc(NC(=O)CCO)c2)C(=O)N2CCC(CCN)CC2)c1    5.59
7. N=C(N)c1cccc(C[C@H](NS(=O)(=O)c2cccc(NCCCN)c2)C(=O)N2CCC(CCN)CC2)c1    6.34
8. CC1(C)CNc2c(cccc2S(=O)(=O)NC(CCCN=C(N)N)C(=O)N2CCC(CCO)CC2)C1 (stereo unspecified)    3.68
9. NC(N)=Nc1ncc(Cl)c2ccc(S(=O)(=O)NC3(C(=O)O)CCOCC3)cc12    4.39
10. NCCCC[C@H](NC(=O)CN(C(=O)CCc1ccccc1)c1ccccc1)B(O)O    6.64
11. N=C(N)c1ccc(CNC(=O)[C@@H]2Cc3cn(nn3)Cc3cccc([n+]3[O-])Cn3cc(nn3)C[C@@H](NS(=O)(=O)Cc3ccccc3)C(=O)N2)cc1    8.05
12. N=C(N)Nc1ccncc1    4.77
13. C[C@H](NS(=O)(=O)c1ccc2c(Cl)cnc(N=C(N)N)c2c1)C(=O)O    4.82
